Molecular target: T1, biotinylated goat anti-human kappa light chain
T1 construct: Positive control of the ELISA
Assay: ELISA; positive control; note: test concentration or dose not given here
ASSAY_METRIC: optical density (OD)
Could you give me the number in OD? Just the number is fine.

Record summary for 374_C11 (antibody, V domains shown, VH/VL only) VH: EVQLLESGGGLVQPGGSLRLSCAASGFTFSSYSMNWVRQAPGKGLEWVAGINYNSGYKGYADSVKGRFTISRDNSKNTLYLQMNSLRAEDTAVYYCARSATWHDTHLDYWGQGTLVTVSS VL: DIQMTQSPSSLSASVGDRVTITCRASQSILTYLNWYQQKPGKAPKLLIYAATSRASGVPSRFSGSGSGTDFTLTISSLQPEDFATYYCQQSYESPLTFGGGTKVEIK : reported optical density = 3.21

Record summary for 366_A09 (antibody, V domains shown, VH/VL only) VH: EVQLLESGGGLVQPGGSLRLSCAASGFTFSDYGMHWVRQAPGKGLEWVASINYNSGYTSYADSVKGRFTISRDNSKNTLYLQMNSLRAEDTAVYYCARSATWHDTHLDYWGQGTLVTVSS VL: DIQMTQSPSSLSASVGDRVTITCRASQSILTYLNWYQQKPGKAPKLLIYAATSRHSGVPSRFSGSGSGTDFTLTISSLQPEDFATYYCQQSYETPLTFGGGTKVEIK : reported optical density = 3.28

Record summary for 365_B09 (antibody, V domains shown, VH/VL only) VH: EVQLLESGGGLVQPGGSLRLSCAASGFTFDSYSMNWVRQAPGKGLEWVAGINYNSGYKSYADSVKGRFTISRDNSKNTLYLQMNSLRAEDTAVYYCARSATWHDTHLDYWGQGTLVTVSS VL: DIQMTQSPSSLSASVGDRVTITCRASQSILRYLNWYQQKPGKAPKLLIYAATSLHSGVPSRFSGSGSGTDFTLTISSLQPEDFATYYCQQSYDNPLTFGGGTKVEIK : reported optical density = 3.28

Record summary for 374_E07 (antibody, V domains shown, VH/VL only) VH: EVQLLESGGGLVQPGGSLRLSCAASGFTFSDYSMNWVRQAPGKGLEWVAGINYNGGYTSYADSVKGRFTISRDNSKNTLYLQMNSLRAEDTAVYYCARSANWHDTALDYWGQGTLVTVSS VL: DIQMTQSPSSLSASVGDRVTITCRASQSIITYVNWYQQKPGKAPKLVIYAATSRASGVPSRFSGSGSGTDFTLTISSLQPEDFATYYCQQSYNTPLTFGGGTKVEIK : reported optical density = 3.2

Record summary for 365_F04 (antibody, V domains shown, VH/VL only) VH: EVQLLESGGGLVQPGGSLRLSCAASGFTFSSYGMNWVRQAPGKGLEWVAGINYNGGYTGYADSVKGRFTISRDNSKNTLYLQMNSLRAEDTAVYYCARSATWHDTHLDYWGQGTLVTVSS VL: DIQMTQSPSSLSASVGDRVTITCRASQSIVTYVNWYQQKPGKAPKLLIYAATSRASGVPSRFSGSGSGTDFTLTISSLQPEDFATYYCQQSYDTPLTFGGGTKVEIK : reported optical density = 3.47
